- System name: Glutamate receptor ionotropic, AMPA (Rattus norvegicus, UniProt P19490+P19491+P19492+P19493)
- Protocol text: Inhibition of specific binding of [3H]AMPA to Ionotropic glutamate receptor AMPA in rat brain membranes
pIC50: −log10 of the molar value.
Experimental readout: pIC50

[
  {
    "Compound": "NC(Cc1ccc([N+](=O)[O-])c(O)c1[N+](=O)[O-])C(=O)O (configuration not stated)",
    "Experimental readout": "pIC50",
    "Readout value": 5.31
  },
  {
    "Compound": "NC(Cc1cc([N+](=O)[O-])cc([N+](=O)[O-])c1O)C(=O)O (configuration not stated)",
    "Experimental readout": "pIC50",
    "Readout value": 4.60
  }
]

----------
- Protocol text: Protolysis constant at an ionic strength of 0.1 M.
- Format: ADME
Hi, to clarify the labels: Yes covers pKa from 6 upward, No covers anything below 6.

[
  {
    "Compound": "NC(Cc1cc([N+](=O)[O-])cc([N+](=O)[O-])c1O)C(=O)O (stereo unspecified)",
    "Answer label": "Yes"
  },
  {
    "Compound": "NC(Cc1c([N+](=O)[O-])ccc(O)c1[N+](=O)[O-])C(=O)O (stereo unspecified)",
    "Answer label": "No"
  },
  {
    "Compound": "Cc1cc([N+](=O)[O-])ccc1O",
    "Answer label": "Yes"
  },
  {
    "Compound": "NC(Cc1cc(O)c([N+](=O)[O-])cc1[N+](=O)[O-])C(=O)O (stereo unspecified)",
    "Answer label": "No"
  },
  {
    "Compound": "NC(Cn1ccc(=O)[nH]c1=O)C(=O)O (racemic)",
    "Answer label": "Yes"
  },
  {
    "Compound": "NC(Cc1cc([N+](=O)[O-])ccc1O)C(=O)O (stereo unspecified)",
    "Answer label": "Yes"
  },
  {
    "Compound": "NC(Cc1cccc([N+](=O)[O-])c1O)C(=O)O (stereo unspecified)",
    "Answer label": "Yes"
  },
  {
    "Compound": "O=C(O)C(O)Cc1cc([N+](=O)[O-])cc([N+](=O)[O-])c1O (stereo unspecified)",
    "Answer label": "No"
  },
  {
    "Compound": "Cc1cccc([N+](=O)[O-])c1O",
    "Answer label": "Yes"
  },
  {
    "Compound": "NC(Cc1ccc(O)c([N+](=O)[O-])c1)C(=O)O (stereo unspecified)",
    "Answer label": "Yes"
  },
  {
    "Compound": "NC(Cn1cc([N+](=O)[O-])c(=O)[nH]c1=O)C(=O)O (stereo unspecified)",
    "Answer label": "Yes"
  },
  {
    "Compound": "NC(Cc1ccccc1O)C(=O)O (stereo unspecified)",
    "Answer label": "Yes"
  },
  {
    "Compound": "NC(Cc1ccc([N+](=O)[O-])c(O)c1[N+](=O)[O-])C(=O)O (stereo unspecified)",
    "Answer label": "No"
  },
  {
    "Compound": "NC(Cc1ccc([N+](=O)[O-])c(O)c1)C(=O)O (stereo unspecified)",
    "Answer label": "Yes"
  },
  {
    "Compound": "NC(Cc1cc(O)ccc1[N+](=O)[O-])C(=O)O (stereo unspecified)",
    "Answer label": "Yes"
  },
  {
    "Compound": "N[C@@H](Cc1cc([N+](=O)[O-])c(O)c([N+](=O)[O-])c1)C(=O)O",
    "Answer label": "No"
  }
]

Cited source: ChEMBL document CHEMBL1130171
